Can you tell me DC50 for the items I'm about to list?
biological target: KRAS G12D (Homo sapiens, UniProt P01116, G12D); construct: host or cells: AsPC-1 human pancreatic cancer cells; assay: Test Example 1-1: KRAS degradation action in AsPC-1, sandwich ELISA; type: cell-based; conditions: AsPC-1 cells, 24 hours treatment, corrected with β-actin, 0% = 10 μM Example No. 7
Sequence (P01116 1-188 isoform P01116-2 G12D): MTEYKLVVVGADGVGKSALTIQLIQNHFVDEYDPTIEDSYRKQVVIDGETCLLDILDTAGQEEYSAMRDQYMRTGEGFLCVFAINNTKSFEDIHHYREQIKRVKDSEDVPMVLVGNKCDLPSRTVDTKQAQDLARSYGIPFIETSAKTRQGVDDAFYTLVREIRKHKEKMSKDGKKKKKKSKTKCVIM
Structures can show the parent of a compound that is named as a salt.
Give just the number in nM; leave the unit off.

// lookup DC50 for Cc1ncsc1-c1ccc([C@H](CO)NC(=O)[C@@H]2C[C@@H](O)CN2C(=O)[C@H](C(C)C)n2cc(-c3ccc(COc4c(-c5c(C)c(F)cc6[nH]ncc56)c(C5CC5)cc5c(N6C[C@@H]7C[C@H]6CN7)nc(OC6COC6)nc45)cc3)nn2)cc1 55

Fill blank: measured DC50 of the molecule CCn1nccc1-c1ccc([C@H](CO)NC(=O)[C@@H]2C[C@@H](O)CN2C(=O)[C@H](C(C)C)n2cc(-c3ccc(COc4c(-c5c(C)c(F)cc6[nH]ncc56)c(C5CC5)cc5c(N6C[C@@H]7C[C@H]6CN7)nc(OC6CCOCC6)nc45)cc3)nn2)cc1 is ____. 24

If you can, please state the reported DC50 value of Cc1ncsc1-c1ccc(C2(NC(=O)[C@@H]3C[C@@H](O)CN3C(=O)[C@@H](NC(=O)c3ccc(COc4c(-c5c(C)c(F)cc6[nH]ncc56)c(C5CC5)cc5c(N6C[C@@H]7C[C@H]6CN7)nc(OC6CCOCC6)nc45)cc3)C(C)C)CC2)cc1 . 123

Field request: DC50 | item: Cc1c(F)cc2[nH]ncc2c1-c1c(C2CC2)cc2c(N3C[C@@H]4C[C@H]3CN4)nc(OC3CCOCC3)nc2c1OCc1ccc(-c2cn([C@H](C(=O)N3C[C@H](O)C[C@H]3C(=O)N[C@@H](CO)c3ccc(-c4scnc4CO)cc3)C(C)C)nn2)cc1 [Example 18, hydrochloride] 74
